- Tested on: MDA-MB-468 breast
- experiment_description: NCI tumour cell line growth inhibition, 48 h
parameter: GI50

Entry under test: "O=C(CN1N=C(c2ccc(F)cc2)CCC1=O)Nc1nc2ccccc2s1" . Its GI50 was 21.1 µM

Entry under test: "N#Cc1cc(-c2ccc3ncnc(N4CCc5cc(F)c(Cl)cc54)c3c2)cnc1N" . Its GI50 was 0.227 µM

Entry under test: "CN1CCc2nc3sc(C(N)=O)c(N)c3c(-c3cccs3)c2C1" . Its GI50 was 1.75 µM

====

I'd appreciate it if you could supply TGI values for the items below.
- Tested on: HCT-15 colon
- experiment_description: NCI tumour cell line growth inhibition, 48 h

Entry under test: "CC(=O)Nc1ccc(-n2cnc3cc(-c4ccc(O)cc4)ccc32)cc1C(F)(F)F" . Its TGI was > 100 µM

Entry under test: "COc1ccc2[nH]c(O)c(N=NC(=O)COc3ccc(NC(=O)Nc4ccc(Cl)c(Cl)c4)cc3)c2c1" . Its TGI was > 100 µM

Entry under test: "N#Cc1cc(-c2ccc3ncnc(N4CCc5cc(F)c(Cl)cc54)c3c2)cnc1N" . Its TGI was > 100 µM
